Target: Shiga toxin 2 (Escherichia coli O157:H7) (UniProt P09385+P09386)
Assay: E. coli 0.157:H7 Shiga Toxin SOP - stx2 screening assay
Type: functional
Design: scale not given: direction of the effect not stated beside the values
Settings: 30 µM
Please provide measured Percent Effect for the entries that follow.
Numbers only; they are read as %.

// sample CN1CCN(c2cc(CNC(=O)c3ccc(=O)n(C)c3)ccn2)CC1 , its Percent Effect was -0.684

// sample CC(NC(=O)c1cc(Br)c2c(c1)OCCO2)C(N)=O (stereo not given) , its Percent Effect was -4.92

// sample CN1CCC(c2nnc(CN3CCC(O)CC3)n2C)CC1 , its Percent Effect was -2.24

// sample CCC1=N[C@@]2(CC[C@@H]3CN(C(=O)Nc4ccc(F)cc4)C[C@@H]32)C(=O)N1 , its Percent Effect was 5.29

// sample CC(C)CC(=O)N1CC[C@@H]2[C@H](CC1)N(S(C)(=O)=O)CCS2(=O)=O , its Percent Effect was -14.8

The measured values listed here are drawn from ChEMBL document CHEMBL3988442.
